Consider the following compounds; for each one, report its EC50.
- assayComment: RSV-A Assay: The description is Japanese.

O=C1Nc2ccccc2C(c2ccccc2)=NC1Nc1nnc(-c2ccccc2-c2ccncc2)o1 (stereo not drawn)    > 800 nM

I'm hoping you can list EC50 for every compound here, please.
1. COC(=O)c1sc(Br)cc1N1CCOCC1
2. C[C@@H]1COCCN1c1cc(C#N)cnc1-c1nnc(N[C@H]2N=C(c3ccccc3)c3ccccc3NC2=O)o1
3. O=C1Nc2ccccc2C(c2ccccc2)=N[C@@H]1Nc1nnc(-c2nc(-c3ccncc3)sc2N2CCOCC2)o1
4. COC(=O)c1ccc(Cl)nc1N1CCOCC1
5. CCOC(=O)c1ncc(C(F)F)cc1N1CCOCC1
6. CCCc1nnc(NC2N=C(c3ccccc3)c3ccccc3NC2=O)o1 (stereo not drawn)
7. COc1cc(-c2nnc(NC3N=C(c4ccccc4)c4ccccc4NC3=O)o2)ccc1F (stereo not drawn)
8. O=C1Nc2ccccc2C(c2ccccc2)=N[C@@H]1Nc1nnc(-c2ncc(C(F)(F)F)cc2NCc2ccco2)o1

## Result
1. < 400 nM
2. < 400 nM
3. < 400 nM
4. < 400 nM
5. < 400 nM
6. > 800 nM
7. < 400 nM
8. > 800 nM

I'm hoping you can list EC50 for every compound here, please.
1. Cn1cc(-c2cc(C#N)cnc2-c2nnc(N[C@H]3N=C(c4ccccc4)c4ccccc4NC3=O)o2)ccc1=O
2. O=C1Nc2ccccc2C(c2ccccc2)=N[C@@H]1Nc1nnc(-c2nc(-c3cccnc3)sc2N2CCOCC2)o1
3. COCCc1cccn2ncc(-c3nnc(N[C@H]4N=C(c5ccccc5)c5ccccc5NC4=O)o3)c12
4. O=C1Nc2ccccc2C(c2ccccc2)=N[C@@H]1Nc1nnc(-c2cc3ccccc3nc2N2CCOCC2)o1
5. O=C1Nc2ccccc2C(c2ccccc2)=N[C@@H]1Nc1nnc(-c2ccccc2N2CCOCC2)o1
6. N#Cc1ccc(-c2nnc(NC3N=C(c4ccccc4)c4ccccc4NC3=O)o2)cc1F (stereo not drawn)
7. N#Cc1ccc(-c2nnc(N[C@H]3N=C(c4ccccc4)c4ccccc4NC3=O)o2)c(N2C3CCC2COC3)c1
8. CCOC(=O)c1c(F)cc(F)cc1F

## Result
> 800 nM
< 400 nM
> 800 nM
< 400 nM
< 400 nM
> 800 nM
< 400 nM
> 800 nM

I'm hoping you can list EC50 for every compound here, please.
1. O=C1Nc2ccccc2C(c2ccccc2)=N[C@@H]1Nc1nnc(-c2oc3ccccc3c2N2CCOCC2)o1
2. O=C1Nc2ccccc2C(c2ccccc2)=NC1Nc1nnc(-c2cccc(-n3ccnc3)c2)o1 (stereo not drawn)
3. COC[C@@H]1CCCN1c1sc(C(F)(F)F)nc1-c1nnc(N[C@H]2N=C(c3ccccc3)c3ccccc3NC2=O)o1
4. N#Cc1cc(N2CCOCC2)c(-c2nnc(N[C@H]3N=C(c4ccccc4)c4ccccc4NC3=O)o2)s1
5. CCOC(=O)c1csc(C(F)(F)C(F)(F)F)n1

## Result
1: < 400 nM; 2: > 800 nM; 3: > 800 nM; 4: < 400 nM; 5: < 400 nM

I'm hoping you can list EC50 for every compound here, please.
1. O=C1Nc2ccccc2C(c2ccccc2)=NC1Nc1nnc(C2CCCC2)o1 (stereo not drawn)
2. Cc1nnc(NC2N=C(c3ccccc3)c3ccccc3NC2=O)o1 (stereo not drawn)

## Result
> 800 nM
> 800 nM

---

- assayComment: RSV-A Assay: The description is Japanese.
reportedEndpoint: EC50

O=C1Nc2ccccc2C(c2ccccc2)=NC1Nc1nnc(-c2ccc(C(F)(F)F)cc2)o1 (stereo not given)    > 800 nM
O=C1Nc2ccccc2C(c2ccccc2)=NC1Nc1nnc(-c2cncs2)o1 (stereo not given)    > 800 nM
O=C1Nc2ccccc2C(c2ccccc2)=NC1Nc1nc(Cl)ns1 (stereo not given)    > 800 nM
COc1ccnc(-c2nnc(NC3N=C(c4ccccc4)c4ccccc4NC3=O)o2)c1 (stereo not given)    > 800 nM
CN[C@H](c1ccccc1)c1nnc(NC2N=C(c3ccccc3)c3ccccc3NC2=O)o1 (stereo not given in full)    > 800 nM
Cn1nnc(-c2ccc(-c3nnc(NC4N=C(c5ccccc5)c5ccccc5NC4=O)o3)cc2)n1 (stereo not given)    > 800 nM
O=C1Nc2ccccc2C(c2ccc(F)cc2)=NC1Nc1nnc(-c2ccc(F)cc2)o1 (stereo not given)    > 800 nM

## Task Tell me the measured EC50 of `CCOC(=O)c1cnn2ccc(C)cc12` , please.
## Result > 800 nM

---

Consider the following molecules; for each one, report its EC50.
- assayComment: RSV-A Assay: The description is Japanese.

Study these solved cases before continuing.
O=C1Nc2ccccc2C(c2ccccc2)=NC1Nc1nnc(-c2cnccc2N2CCCCC2)o1 (centres undefined)    > 800 nM
COCCNc1sccc1-c1nnc(N[C@H]2N=C(c3ccccc3)c3ccccc3NC2=O)o1    > 800 nM
O=C1Nc2ccccc2C(c2ccccc2)=N[C@@H]1Nc1nnc(-c2ncc(F)cc2N2CC3CCC(C2)O3)o1    < 400 nM
O=C1Nc2ccccc2C(c2ccccc2)=NC1Nc1nnc(-c2cc3cccnc3s2)o1 (centres undefined)    > 800 nM

I'm hoping you can list EC50 for every molecule here, please.
1. O=C1Nc2ccccc2C(c2ccccc2)=N[C@@H]1Nc1nnc(-c2ncc(C(F)(F)F)cc2N2CCC(F)CC2)o1
2. N#Cc1cc(-c2nnc(NC3N=C(c4ccccc4)c4ccccc4NC3=O)o2)ccn1 (centres undefined)
3. O=C1Nc2ccccc2C(c2ccccc2)=NC1Nc1ccc(-c2ccc(F)cc2)nn1 (centres undefined)

## Result
> 800 nM
> 800 nM
> 800 nM

I'm hoping you can list EC50 for every molecule here, please.
1. COCCOc1cc(C#N)ccc1-c1nnc(N[C@H]2N=C(c3ccccc3)c3ccccc3NC2=O)o1
2. Cn1cc(-c2nnc(N[C@H]3N=C(c4ccccc4)c4ccccc4NC3=O)o2)c(N2CCOCC2)n1

## Result
1. < 400 nM
2. < 400 nM

---

- assayComment: RSV-A Assay: The description is Japanese.
reportedEndpoint: EC50

Study these solved cases before continuing.
Cc1ccc2oc(NC3N=C(c4ccccc4)c4ccccc4NC3=O)nc2c1 (centres undefined)    > 800 nM
O=C1Nc2ccccc2C(c2ccccc2)=NC1Nc1nnc(-c2ccc(F)cn2)o1 (centres undefined)    > 800 nM
O=C1Nc2ccccc2C(c2ccccc2)=N[C@@H]1Nc1cc(-c2ccccc2)cnn1    > 800 nM
Cc1cc(-c2nnc(N[C@H]3N=C(c4ccccc4)c4ccccc4NC3=O)o2)c(N2CCOCC2)s1    < 400 nM
O=C1Nc2ccccc2C(c2ccccc2)=NC1Nc1nnc(-c2ccc(Cl)cc2)o1 (centres undefined)    < 400 nM
O=C1Nc2ccccc2C(c2ccccc2)=N[C@@H]1Nc1nnc(-c2nsnc2N2CCOCC2)o1    < 400 nM

I'm hoping you can list EC50 for every molecule here, please.
1. O=C1Nc2ccccc2C(c2ccccc2)=NC1Nc1nnc(-c2ccc(N3CCOCC3)cc2Cl)o1 (centres undefined)
2. COc1cc(-c2nnc(NC3N=C(c4ccccc4)c4ccccc4NC3=O)o2)ccc1-n1cnc(C)c1 (centres undefined)

## Result
1: > 800 nM; 2: > 800 nM

---

- assayComment: RSV-A Assay: The description is Japanese.
Consider the following molecules; for each one, report its EC50.

I'm hoping you can list EC50 for every molecule here, please.
1. O=C1Nc2ccccc2C(c2ccccc2)=N[C@@H]1Nc1nnc(-c2ncc(C(F)(F)F)cc2NC2COC2)o1
2. C[C@@H]1COCCN1c1cc(C(F)(F)F)cnc1-c1nnc(N[C@H]2N=C(c3ccccc3)c3ccccc3NC2=O)o1

## Result
["< 0.4 µM", "< 0.4 µM"]

---

- assayComment: RSV-A Assay: The description is Japanese.
reportedEndpoint: EC50

Study these solved cases before continuing.
CC(=O)N1CCC(c2nnc(NC3N=C(c4ccccc4)c4ccccc4NC3=O)o2)CC1 (stereo not given)    > 0.8 µM
COCCCc1sc(C)nc1-c1nnc(N[C@H]2N=C(c3ccccc3)c3ccccc3NC2=O)o1    > 0.8 µM
CN(C)Cc1ccc(-c2nnc(NC3N=C(c4ccccc4)c4ccccc4NC3=O)o2)o1 (stereo not given)    > 0.8 µM
O=C1Nc2ccccc2C(c2ccccc2)=NC1Nc1nnc(C2CCOCC2)o1 (stereo not given)    > 0.8 µM
O=C1Nc2ccccc2C(c2ccccc2)=N[C@H]1Nc1nnc(-c2ccc(N3CCOCC3)cc2)o1    > 0.8 µM

I'm hoping you can list EC50 for every compound here, please.
1. O=C1Nc2ccccc2C(c2ccccc2)=NC1Nc1nc(-c2ccccc2)ns1 (stereo not given)
2. O=C1Nc2ccccc2C(c2ccccc2)=N[C@@H]1Nc1nnc(-c2nc(C3CCC3)sc2N2CCOCC2)o1
3. O=C1Nc2ccccc2C(c2ccccc2)=NC1Nc1nnc(-c2nccnc2N2CCOCC2)o1 (stereo not given)
4. O=C1Nc2ccccc2C(c2ccccc2)=NC1Nc1nnc(-c2ccc(Cl)o2)o1 (stereo not given)

## Result
1. > 0.8 µM
2. < 0.4 µM
3. < 0.4 µM
4. > 0.8 µM
